# Organism: Rattus norvegicus
# assay_info: Open TG-GATES - Regimen: Single
# Format: toxicity, organism-based, Sprague-Dawley
# Design: regimen Single, gender Male, age 6 weeks
# experimental_setup: in vivo, po, 100 mg/kg, 6 h, tissue Blood, route gavage, dose level High
measure: MCV (fL)
Record the value in fL, omitting the unit from your answer.

Sample records with MCV:
Input line: Which value of MCV has been reported for CN(C)CCCN1c2ccccc2CCc2ccccc21 in the records?
Output line: 66.2

Input line: Which value of MCV has been reported for CC1=C(/C=C/C(C)=C/C=C/C(C)=C/CO)C(C)(C)CCC1 in the records?
Output line: 61.8

Input line: Which value of MCV has been reported for CN(C)CCCN1c2ccccc2CCc2ccc(Cl)cc21 in the records?
Output line: 66.2

Turning to the following compound.
Input line: Which value of MCV has been reported for CN(C)CCN(Cc1cccs1)c1ccccn1 in the records?
Output line: 64.8

###

# Species: Rattus norvegicus
# assay_info: Open TG-GATES - Regimen: Daily Repeat
# Type: toxicity, organism-based, Sprague-Dawley
# Design: regimen Daily Repeat, gender Male, age 6 weeks
# experimental_setup: in vivo, po, 1000 mg/kg, […], tissue Plasma, route gavage, dose level High, time 28 day
Listed here are compounds together with their documented A/G.
Simply state the number, no unit and no words.

Sample records with A/G:
Input line: Which value of A/G has been reported for NC(N)=Nc1nc(CSCCC(N)=NS(N)(=O)=O)cs1 [FAMOTIDINE] in the records?
Output line: 1.3

Input line: Which value of A/G has been reported for COC1=CC(=O)C[C@@H](C)[C@]12Oc1c(Cl)c(OC)cc(OC)c1C2=O [GRISEOFULVIN] in the records?
Output line: 1.3

Input line: Which value of A/G has been reported for CCOC(=O)CCC(=O)O[C@H]1[C@H](O[C@@H]2[C@@H](C)[C@H](O[C@H]3C[C@@](C)(OC)[C@@H](O)[C@H](C)O3)[C@@H](C)C(=O)O[C@H](CC)[C@@](C)(O)[C@H](O)[C@@H](C)C(=O)[C@H](C)C[C@@]2(C)O)O[C@H](C)C[C@@H]1N(C)C [ERYTHROMYCIN ETHYLSUCCINATE] in the records?
Output line: 1.1

More entries:
Input line: Which value of A/G has been reported for CCOc1ccc(NC(=O)CC(C)O)cc1 (centres undefined) [BUCETIN] in the records?
Output line: 0.8

###

# Species: Rattus norvegicus
# assay_info: Open TG-GATES - Regimen: Daily Repeat
# Format: toxicity, organism-based, Sprague-Dawley
# Design: regimen Daily Repeat, gender Male, age 6 weeks
# experimental_setup: in vivo, po, 0 mg/kg, […], tissue Blood, route gavage, dose level Control, time 7 day
measure: PT (s)
Record the value in s, omitting the unit from your answer.

Sample records with PT:
Input line: Which value of PT has been reported for NC(N)=Nc1nc(CSCCC(N)=NS(N)(=O)=O)cs1 in the records?
Output line: 11.8

Input line: Which value of PT has been reported for CN1C(=O)CN=C(c2ccccc2)c2cc(Cl)ccc21 in the records?
Output line: 11.4

Input line: Which value of PT has been reported for CN(C)CCCN1c2ccccc2CCc2ccccc21 in the records?
Output line: 15.4

Input line: Which value of PT has been reported for CCOc1ccc(NC(=O)CC(C)O)cc1 (stereo not drawn) in the records?
Output line: 13.9

More entries:
Input line: Which value of PT has been reported for CC1=C(/C=C/C(C)=C/C=C/C(C)=C/CO)C(C)(C)CCC1 in the records?
Output line: 16.3

Input line: Which value of PT has been reported for CCOC(=O)CCC(=O)O[C@H]1[C@H](O[C@@H]2[C@@H](C)[C@H](O[C@H]3C[C@@](C)(OC)[C@@H](O)[C@H](C)O3)[C@@H](C)C(=O)O[C@H](CC)[C@@](C)(O)[C@H](O)[C@@H](C)C(=O)[C@H](C)C[C@@]2(C)O)O[C@H](C)C[C@@H]1N(C)C [ERYTHROMYCIN ETHYLSUCCINATE] in the records?
Output line: 16.6

Input line: Which value of PT has been reported for COc1ccc2[nH]c([S+]([O-])Cc3ncc(C)c(OC)c3C)nc2c1 (stereo not drawn) in the records?
Output line: 11.9

Input line: Which value of PT has been reported for CN(C)CCN(Cc1cccs1)c1ccccn1 in the records?
Output line: 17

###

# Organism: Rattus norvegicus
# assay_info: Open TG-GATES - Regimen: Daily Repeat
# Format: toxicity, organism-based, Sprague-Dawley
# Design: regimen Daily Repeat, gender Male, age 6 weeks
# experimental_setup: in vivo, po, 300 mg/kg, 72 h, tissue Kidney, route gavage, dose level Middle, time 3 day
measure: KIDNEY_TOTAL (g)
Record the value in g, omitting the unit from your answer.

Input line: Which value of KIDNEY_TOTAL has been reported for CCOC(=O)CCC(=O)O[C@H]1[C@H](O[C@@H]2[C@@H](C)[C@H](O[C@H]3C[C@@](C)(OC)[C@@H](O)[C@H](C)O3)[C@@H](C)C(=O)O[C@H](CC)[C@@](C)(O)[C@H](O)[C@@H](C)C(=O)[C@H](C)C[C@@]2(C)O)O[C@H](C)C[C@@H]1N(C)C [ERYTHROMYCIN ETHYLSUCCINATE] in the records?
Output line: 2

Input line: Which value of KIDNEY_TOTAL has been reported for CCOc1ccc(NC(=O)CC(C)O)cc1 (stereo not given) in the records?
Output line: 2

Input line: Which value of KIDNEY_TOTAL has been reported for COC1=CC(=O)C[C@@H](C)[C@]12Oc1c(Cl)c(OC)cc(OC)c1C2=O in the records?
Output line: 1.9

Input line: Which value of KIDNEY_TOTAL has been reported for COc1ccc2[nH]c([S+]([O-])Cc3ncc(C)c(OC)c3C)nc2c1 (stereo not given) in the records?
Output line: 2.1

Turning to the following molecule.
Input line: Which value of KIDNEY_TOTAL has been reported for NC(N)=Nc1nc(CSCCC(N)=NS(N)(=O)=O)cs1 in the records?
Output line: 2

###

# Organism: Rattus norvegicus
# assay_info: Open TG-GATES - Regimen: Daily Repeat
# Type: toxicity, organism-based, Sprague-Dawley
# Set-up: regimen Daily Repeat, gender Male, age 6 weeks
# experimental_setup: in vivo, po, 300 mg/kg, […], tissue Plasma, route gavage, dose level Middle, time 28 day
measure: PL
Phrase the answer as number then unit, nothing more needed.

Input line: Which value of PL has been reported for COc1ccc2[nH]c([S+]([O-])Cc3ncc(C)c(OC)c3C)nc2c1 (stereo not given) in the records?
Output line: 134.8 mg/dL

Input line: Which value of PL has been reported for NC(N)=Nc1nc(CSCCC(N)=NS(N)(=O)=O)cs1 in the records?
Output line: 133 mg/dL

Input line: Which value of PL has been reported for COC1=CC(=O)C[C@@H](C)[C@]12Oc1c(Cl)c(OC)cc(OC)c1C2=O in the records?
Output line: 125.8 mg/dL

Input line: Which value of PL has been reported for CCOc1ccc(NC(=O)CC(C)O)cc1 (stereo not given) in the records?
Output line: 170.6 mg/dL

Input line: Which value of PL has been reported for CCOC(=O)CCC(=O)O[C@H]1[C@H](O[C@@H]2[C@@H](C)[C@H](O[C@H]3C[C@@](C)(OC)[C@@H](O)[C@H](C)O3)[C@@H](C)C(=O)O[C@H](CC)[C@@](C)(O)[C@H](O)[C@@H](C)C(=O)[C@H](C)C[C@@]2(C)O)O[C@H](C)C[C@@H]1N(C)C [ERYTHROMYCIN ETHYLSUCCINATE] in the records?
Output line: 151.8 mg/dL

###

Listed here are molecules together with their documented ALP.
# Species on record: Rattus norvegicus
# assay_info: Open TG-GATES - Regimen: Single
# Format: toxicity, organism-based, Sprague-Dawley
# Set-up: regimen Single, gender Male, age 6 weeks
# experimental_setup: in vivo, po, 300 mg/kg, 6 h, tissue Plasma, route gavage, dose level Middle
Record the value in IU/L, omitting the unit from your answer.

Input line: Which value of ALP has been reported for NC(N)=Nc1nc(CSCCC(N)=NS(N)(=O)=O)cs1 in the records?
Output line: 896.8

Input line: Which value of ALP has been reported for COC1=CC(=O)C[C@@H](C)[C@]12Oc1c(Cl)c(OC)cc(OC)c1C2=O in the records?
Output line: 1072.4

Input line: Which value of ALP has been reported for CCOC(=O)CCC(=O)O[C@H]1[C@H](O[C@@H]2[C@@H](C)[C@H](O[C@H]3C[C@@](C)(OC)[C@@H](O)[C@H](C)O3)[C@@H](C)C(=O)O[C@H](CC)[C@@](C)(O)[C@H](O)[C@@H](C)C(=O)[C@H](C)C[C@@]2(C)O)O[C@H](C)C[C@@H]1N(C)C [ERYTHROMYCIN ETHYLSUCCINATE] in the records?
Output line: 1767.2

Input line: Which value of ALP has been reported for COc1ccc2[nH]c([S+]([O-])Cc3ncc(C)c(OC)c3C)nc2c1 (centres undefined) in the records?
Output line: 913.6

Ref: ChEMBL document CHEMBL3885861
